Where do the numbers come from? From the supplement of paper PMC6755084.

Quick reference: fraction ligated of the listed items.
B1: F1*; the commonest letter at each place (parent)
chain: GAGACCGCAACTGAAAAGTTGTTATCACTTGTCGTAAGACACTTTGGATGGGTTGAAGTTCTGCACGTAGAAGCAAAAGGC

Variants of: B1
protocol: fraction ligated after 30 min (ligated reads / total reads); higher = more ligase activity
experimentalContext: with F1*sub RNA substrate (template-directed ligation), 42 °C
API note: the answer field is a bare number with no unit suffix.

G46A G55A    0.786
C40A C42G    0.803
T49A    0.777
T30C G46A    0.807
A27T A37T    0.808

Memo: A27G T29G , reported fraction ligated: 0.806

For record T23C C28T the listed fraction ligated is 0.777

fraction ligated for A27C is 0.81

GET /value?item= C26T A41C &field=fraction ligated returns 0.771
